Could you please report measured Rabbit Colon % Inh for the items listed next?
target: Motilin Receptor (Oryctolagus cuniculus, UniProt G1T803); construct: The muscle tissue was homogenized in 10 volumes of 50 mM Tris-Cl; from tissue; host or cells: rabbit colon smooth muscle, crude membrane homogenate; experiment: Motilin receptor binding, rabbit colon membranes, 125I porcine motilin; set-up: dose or concentration left out as unconfirmed; settings: rabbit colon membranes
Sequence (G1T803 1-400): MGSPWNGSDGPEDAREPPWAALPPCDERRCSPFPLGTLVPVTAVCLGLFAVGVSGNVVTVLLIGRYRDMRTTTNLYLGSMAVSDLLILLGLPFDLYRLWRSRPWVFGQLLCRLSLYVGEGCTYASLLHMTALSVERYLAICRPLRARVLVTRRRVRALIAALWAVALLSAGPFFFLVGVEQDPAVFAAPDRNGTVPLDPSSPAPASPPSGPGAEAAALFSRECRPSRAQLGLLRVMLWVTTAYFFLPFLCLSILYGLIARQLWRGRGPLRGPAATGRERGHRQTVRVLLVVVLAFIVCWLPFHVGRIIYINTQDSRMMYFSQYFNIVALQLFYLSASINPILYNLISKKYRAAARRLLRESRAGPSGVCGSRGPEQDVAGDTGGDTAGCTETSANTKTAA
// return numeric value only (unit: %, not printed)

Looking up O=C(Nc1ccccc1)N(CC1CCCC(NS(=O)(=O)c2ccc3ccccc3c2)C1)c1cccc(OCCN2CCOCC2)c1 (stereo not shown) , I see its Rabbit Colon % Inh listed as 43

Please fill in: Rabbit Colon % Inh reported for "O=C(CCCC(=O)N(Cc1ccc(F)cc1)c1cccc(O)c1)N(CCc1ccccc1)Cc1ccccc1" = 0

Measured Rabbit Colon % Inh, "CN(Cc1ccccc1)C(=O)CCCCN(C(=O)Nc1ccccc1)c1cccc(OCCN2CCOCC2)c1" : 5

Documented Rabbit Colon % Inh of O=C(c1ccc(F)cc1)N(CC1CCCC(N(Cc2ccccc2)C(=O)c2cccc([N+](=O)[O-])c2)C1)c1cccc(OCCN2CCOCC2)c1 (stereo not shown) : 51

----------
Assign inhibition at 1 µM to each entry below.
target: motilin receptor preparation (Human antrum tissue) (Homo sapiens); construct: Human antrum tissue from Analytical Biological Services (Wilmington, Del.) was prepared as a motilin receptor preparation; tissue Analytical Biological Services (Wilmington, Del.); host or cells: human antrum (stomach) muscle tissue, crude membrane homogenate; test: 125I-motilin binding to human antral stomach membranes; conditions: human antrum membranes; @1 μM; read-out: Human Antrum % Inh @1 μM
Sequence (O43193 whole entry): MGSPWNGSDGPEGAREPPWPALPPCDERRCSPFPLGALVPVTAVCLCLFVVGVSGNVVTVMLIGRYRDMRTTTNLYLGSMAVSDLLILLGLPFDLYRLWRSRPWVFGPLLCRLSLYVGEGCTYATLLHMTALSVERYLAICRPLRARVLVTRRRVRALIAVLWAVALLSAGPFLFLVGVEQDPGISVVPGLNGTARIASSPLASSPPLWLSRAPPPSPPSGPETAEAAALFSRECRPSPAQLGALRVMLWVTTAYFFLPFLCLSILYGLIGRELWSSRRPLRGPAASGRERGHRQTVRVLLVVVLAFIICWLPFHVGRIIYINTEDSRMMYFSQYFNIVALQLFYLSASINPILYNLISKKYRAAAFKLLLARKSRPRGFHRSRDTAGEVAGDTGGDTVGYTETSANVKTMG
Numbers only here, please. The scale is %.

Form: item CC(C)(C)C(=O)N(Cc1cccc(Cl)c1)C1CCCC(CN(C(=O)c2ccc(F)cc2)c2cccc(OCCN3CCCC3)c2)C1 (centres unmarked) ; test system motilin receptor preparation (Human antrum tissue) (Homo sapiens); inhibition at 1 µM: 100

// inhibition at 1 µM (motilin receptor preparation (Human antrum tissue) (Homo sapiens)) for "CC(C)(C)C(=O)N(Cc1ccc(F)c(F)c1)[C@@H]1CC[C@H](CN(C(=O)c2ccc(F)cc2)c2cccc(OCCN3CCCC3)c2)C1" = 92

Lab note: compound CC(C)(C)C(=O)N(Cc1ccc(F)c(F)c1)C1CCCC(CN(C(=O)c2ccc(F)cc2)c2cccc(OCCN3CCCC3)c2)C1 (centres unmarked) tested on motilin receptor preparation (Human antrum tissue) (Homo sapiens); recorded inhibition at 1 µM was 100

Noted inhibition at 1 µM for CC(C)(C)C(=O)N(Cc1ccc(Cl)c(Cl)c1)C1CCCC(CN(C(=O)c2ccc(F)cc2)c2cccc(OCCN3CCCC3)c2)C1 (centres unmarked) , tested on motilin receptor preparation (Human antrum tissue) (Homo sapiens): 100

Field inhibition at 1 µM (motilin receptor preparation (Human antrum tissue) (Homo sapiens)), entry "O=C(c1ccc(F)cc1)N(C[C@H]1CC[C@@H](N(Cc2ccccc2)C(=O)C(Cl)(Cl)Cl)C1)c1cccc(OCCN2CCCC2)c1" : 98

----------
Exercise: state measured Rabbit Colon % Inh for each of the compounds provided.
target: Motilin Receptor (Oryctolagus cuniculus, UniProt G1T803); construct: The muscle tissue was homogenized in 10 volumes of 50 mM Tris-Cl; from tissue; host or cells: rabbit colon smooth muscle, crude membrane homogenate; assay: Motilin receptor binding, rabbit colon membranes, 125I porcine motilin; parameters: dose or concentration left out as unconfirmed; settings: rabbit colon membranes

Record O=C(NC1CCCC(CN(C(=O)Nc2ccccc2)c2cccc(OCCN3CCOCC3)c2)C1)c1ccc2ccccc2c1 (stereo not shown) , field Rabbit Colon % Inh: 39%

O=C(c1ccc(F)cc1)N(CC1CCCC(N(Cc2ccccc2)C(=O)Nc2ccccc2)C1)c1cccc(OCCN2CCOCC2)c1 (stereo not shown) has a reported Rabbit Colon % Inh of 25%

Summary for this compound, O=C(c1ccc(F)cc1)N(CC1CCCC(N(Cc2cccc(Cl)c2)C(=O)c2ccc3ccccc3c2)C1)c1cccc(OCCN2CCOCC2)c1 (stereo not shown) : Rabbit Colon % Inh is 2%

Sure, the documented Rabbit Colon % Inh for O=C(c1ccc(F)cc1)N(CC1CCCC(N(Cc2ccccc2)C(=O)CCc2ccccc2)C1)c1cccc(OCCN2CCOCC2)c1 (stereo not shown) is 26%

Memo: "CCN(Cc1ccccc1)C(=O)CCCCN(c1cccc(OCCN2CCOCC2)c1)S(=O)(=O)c1ccc(C)cc1" , reported Rabbit Colon % Inh: 4%

Lab note: measured Rabbit Colon % Inh of O=C(Nc1ccccc1)N(CC1CCCC(N(Cc2cccc(Cl)c2)C(=O)c2cccc([N+](=O)[O-])c2)C1)c1cccc(OCCN2CCOCC2)c1 (stereo not shown) was 48%

The recorded Rabbit Colon % Inh for "O=C(CCCN(C(=O)c1ccc(F)cc1)c1cccc(OCCN2CCOCC2)c1)NC(c1ccccc1)c1ccccc1" is 0%

Rabbit Colon % Inh recorded for this compound, "O=C(CCCC(=O)N(Cc1ccc(C(F)(F)F)cc1)c1cccc(OCCN2CCOCC2)c1)N(CCc1ccccc1)Cc1ccccc1" , is 40%

Quick note, Rabbit Colon % Inh for O=C(c1ccc(F)cc1)N(CC1CCCC(N(Cc2cccc(Cl)c2)C(=O)c2ccc(-c3ccccc3)cc2)C1)c1cccc(OCCN2CCOCC2)c1 (stereo not shown) landed at 27%

Notebook: "COc1ccc(CN(C(=O)CCC(=O)N(CCc2ccccc2)Cc2ccccc2)c2cccc(OCCN3CCOCC3)c2)cc1" , Rabbit Colon % Inh read as 23%

Item: O=C(Nc1ccccc1)N(CC1CCC(N(Cc2ccccc2)C(=O)Cc2ccccc2)CC1)c1cccc(OCCN2CCOCC2)c1 (stereo not shown) | Rabbit Colon % Inh: 2%

// sample O=C(Nc1ccccc1)N(CC1CCCC(N(Cc2ccc(Cl)c(Cl)c2)C(=O)C(Cl)(Cl)Cl)C1)c1cccc(OCCN2CCOCC2)c1 (stereo not shown) , its Rabbit Colon % Inh was 23%

The recorded Rabbit Colon % Inh for entry "O=C(CCCC(=O)N(Cc1ccc(F)cc1)c1ccc(OCCCN2CCCCC2)cc1)N(CCc1ccccc1)Cc1ccccc1" equals 7%

----------
target: Motilin Receptor (Oryctolagus cuniculus); construct: The muscle tissue was homogenized in 10 volumes of 50 mM Tris-Cl; from tissue; host or cells: rabbit colon smooth muscle, crude membrane homogenate; test: Motilin receptor binding, rabbit colon membranes, 125I porcine motilin; parameters: dose or concentration left out as unconfirmed; conditions: rabbit colon membranes
QUANTITY: Rabbit Colon % Inh (%)
Please respond with the number in % and leave the unit unwritten.

Measured on Motilin Receptor (Oryctolagus cuniculus), "CC(C)(C)CN(Cc1cccc(Cl)c1)C(=O)c1cccc(CN(C(=O)c2ccc(F)cc2)c2cccc(OCCN3CCOCC3)c2)c1" has a documented Rabbit Colon % Inh of 21

Bench note, Motilin Receptor (Oryctolagus cuniculus): CC1(C)CC(=O)N(C2CCCC(CN(C(=O)c3ccc(F)cc3)c3cccc(OCCN4CCOCC4)c3)C2)C(=O)C1 (stereo not shown) , Rabbit Colon % Inh reads 34

Considering "CCN(CC)CCOc1ccc(N(Cc2ccc(F)cc2)C(=O)CCCC(=O)N(CCc2ccccc2)Cc2ccccc2)cc1" , its Rabbit Colon % Inh with Motilin Receptor (Oryctolagus cuniculus) was recorded as 62

The compound "CCN(Cc1ccc(C)cc1)C(=O)CCCCN(C(=O)Nc1ccccc1)c1cccc(OCCN2CCOCC2)c1" , when measured on Motilin Receptor (Oryctolagus cuniculus), yielded Rabbit Colon % Inh of 7

Noted Rabbit Colon % Inh for O=C(c1ccc(F)cc1)N(CC1CCCC(N2C(=O)c3ccc(Br)cc3C2=O)C1)c1cccc(OCCN2CCOCC2)c1 (stereo not shown) , tested on Motilin Receptor (Oryctolagus cuniculus): 17

# lookup: O=C(Nc1ccccc1)N(CC1CCCC(N(Cc2cccc(Cl)c2)C(=O)c2ccc3ccccc3c2)C1)c1cccc(OCCN2CCOCC2)c1 (stereo not shown) on Motilin Receptor (Oryctolagus cuniculus), Rabbit Colon % Inh = 42

Query "O=C(CCCCN(C(=O)Nc1ccccc1)c1cccc(OCCN2CCOCC2)c1)N(Cc1ccccc1)Cc1ccccc1" on Motilin Receptor (Oryctolagus cuniculus); Rabbit Colon % Inh returned: 22

----------
target: Motilin Receptor (Oryctolagus cuniculus, UniProt G1T803); construct: The muscle tissue was homogenized in 10 volumes of 50 mM Tris-Cl; from tissue; host or cells: rabbit colon smooth muscle, crude membrane homogenate; test: Motilin receptor binding, rabbit colon membranes, 125I porcine motilin; parameters: dose or concentration left out as unconfirmed; conditions: rabbit colon membranes
Label rule, in plain words: Rabbit Colon % Inh of 10% and up is Satisfied, under 10% is Not satisfied.

Please check the record COc1cccc(CC(=O)N(Cc2cccc(Cl)c2)C2CCCC(CN(C(=O)c3ccc(F)cc3)c3cccc(OCCN4CCOCC4)c3)C2)c1 (stereo not shown) and state if its Rabbit Colon % Inh is at or above 10%. Satisfied

Is reported Rabbit Colon % Inh greater than or equal to 10% here: "Cc1ccc(C(=O)N(CCCC(=O)N(C)Cc2ccccc2)c2cccc(OCCN3CCOCC3)c2)cc1" Satisfied

Record "CC(C)(C)CN(Cc1ccccc1)C(=O)CCCN(C(=O)c1ccc(F)cc1)c1cccc(OCCN2CCOCC2)c1" ; criterion: Rabbit Colon % Inh no lower than 10%. Met? Satisfied

Kindly determine if Rabbit Colon % Inh recorded for "O=C(CCCN(C(=O)c1ccc(F)cc1)c1cccc(OCCN2CCOCC2)c1)N(CCCc1ccccc1)Cc1ccccc1" is above or exactly 10%. Satisfied

Hello, I need to know if COc1cccc(C(=O)N(Cc2ccccc2)C2CCCC(CN(C(=O)c3ccc(F)cc3)c3cccc(OCCN4CCOCC4)c3)C2)c1 (stereo not shown) has measured Rabbit Colon % Inh not below 10%. Thanks! Satisfied

Check the entry "O=C([C@H](Cc1ccccc1)NS(=O)(=O)c1ccc(-c2ccccc2)cc1)N(Cc1ccc(F)cc1)c1cccc(OCCN2CCOCC2)c1" : does Rabbit Colon % Inh equal or exceed 10%? Not satisfied

Check if Rabbit Colon % Inh >= 10% (inclusive). Item: "O=C([C@H](Cc1ccccc1)N(Cc1ccccc1)C(=O)C(Cl)(Cl)Cl)N(Cc1ccc(F)cc1)c1cccc(OCCN2CCOCC2)c1" Not satisfied
